- SYSTEM: T1, 4H906-bH
- T1 chain: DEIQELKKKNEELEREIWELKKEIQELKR
- TEST NAME: two-hybrid library CCNG1;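 further: natural log of median RNA to DNA barcode read ratio; higher means stronger binding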
OUTCOME MEASURE: interaction score
Number, no unit, nothing else.

Q. State the recorded interaction score for this entry: DEIQELKKEIEELKREIWELEKKNQELKR [4H584-bH]
A. 0.202

Q. Requested field: interaction score. Item: DKNQELEKKNEELERKIWELKKEIQELER [4H3497-bH]
A. -0.345

Q. Query (binder): DKNQELKKEIEELERKNWELEKKIQELKR [4H3638-bH] ; field requested: interaction score
A. -0.762

Q. Suppose we examine the binder DENQELKKEIEELKRENWELKKKIQELER [4H1629-bH] ; what interaction score value has been reported?
A. -0.794

Q. # input binder: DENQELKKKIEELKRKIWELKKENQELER [4H1899-bH] ; wanted: its interaction score
A. -0.666

Q. Please look up its interaction score: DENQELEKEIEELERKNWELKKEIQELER [4H1081-bH]
A. -0.686

Q. Requested field: interaction score. Item: DENQELKKKIEELEREIWELKKENQELKR [4H1804-bH]
A. -0.842

Q. Name the reported interaction score value associated with the binder DENQELEKKIEELKRKNWELEKEIQELER [4H1393-bH]
A. -1.05
